Listed here: items and their measured MIC.
System: Staphylococcus aureus
assay procedure: Antibacterial activity against methicillin-resistant Staphylococcus aureus ATCC43300 by broth microdilution method
Format: functional
property name: MIC (µg/mL)

[
  {
    "input smiles": "CC[C@H]1OC(=O)[C@H](C)[C@@H](OC(=O)NNC(=O)Cn2cc(-c3ccccc3OC)nn2)[C@H](C)[C@@H](O[C@@H]2O[C@H](C)C[C@H](N(C)C)[C@H]2O)[C@](C)(O)C[C@@H](C)CN(C)[C@H](C)[C@H]2OC(=O)O[C@@]21C",
    "units symbol": "µg/mL",
    "bound operator": "=",
    "recorded measurement": 256
  },
  {
    "input smiles": "CCCCc1ccc(-c2cn(CC(=O)NNC(=O)O[C@H]3[C@H](C)[C@@H](O[C@@H]4O[C@H](C)C[C@H](N(C)C)[C@H]4O)[C@](C)(O)C[C@@H](C)CN(C)[C@H](C)[C@H]4OC(=O)O[C@]4(C)[C@@H](CC)OC(=O)[C@@H]3C)nn2)cc1",
    "units symbol": "µg/mL",
    "bound operator": "=",
    "recorded measurement": 32
  },
  {
    "input smiles": "CC[C@H]1OC(=O)[C@H](C)[C@@H](OC(=O)NNC(=O)Cn2cc(-c3cccc(N)c3)nn2)[C@H](C)[C@@H](O[C@@H]2O[C@H](C)C[C@H](N(C)C)[C@H]2O)[C@](C)(O)C[C@@H](C)CN(C)[C@H](C)[C@H]2OC(=O)O[C@@]21C",
    "units symbol": "µg/mL",
    "bound operator": ">",
    "recorded measurement": 256
  },
  {
    "input smiles": "CC[C@H]1OC(=O)[C@H](C)[C@@H](OC(=O)NNC(=O)Cn2cc(-c3ccc(Br)cc3)nn2)[C@H](C)[C@@H](O[C@@H]2O[C@H](C)C[C@H](N(C)C)[C@H]2O)[C@](C)(O)C[C@@H](C)CN(C)[C@H](C)[C@H]2OC(=O)O[C@@]21C",
    "units symbol": "µg/mL",
    "bound operator": "=",
    "recorded measurement": 64
  },
  {
    "input smiles": "CC[C@H]1OC(=O)[C@H](C)[C@@H](OC(=O)NNC(=O)Cn2cc(-c3ccccc3Cl)nn2)[C@H](C)[C@@H](O[C@@H]2O[C@H](C)C[C@H](N(C)C)[C@H]2O)[C@](C)(O)C[C@@H](C)CN(C)[C@H](C)[C@H]2OC(=O)O[C@@]21C",
    "units symbol": "µg/mL",
    "bound operator": "=",
    "recorded measurement": 128
  },
  {
    "input smiles": "CC[C@H]1OC(=O)[C@H](C)[C@@H](OC(=O)NNC(=O)Cn2cc(-c3cccc([N+](=O)[O-])c3)nn2)[C@H](C)[C@@H](O[C@@H]2O[C@H](C)C[C@H](N(C)C)[C@H]2O)[C@](C)(O)C[C@@H](C)CN(C)[C@H](C)[C@H]2OC(=O)O[C@@]21C",
    "units symbol": "µg/mL",
    "bound operator": "=",
    "recorded measurement": 256
  }
]

Every entry's value here was drawn from ChEMBL document CHEMBL4823305.
